The origin of these recorded values is ChEMBL document CHEMBL1145002.

- Target Or System: Nitric oxide synthase, inducible (Mus musculus)
- Sequence (whole entry): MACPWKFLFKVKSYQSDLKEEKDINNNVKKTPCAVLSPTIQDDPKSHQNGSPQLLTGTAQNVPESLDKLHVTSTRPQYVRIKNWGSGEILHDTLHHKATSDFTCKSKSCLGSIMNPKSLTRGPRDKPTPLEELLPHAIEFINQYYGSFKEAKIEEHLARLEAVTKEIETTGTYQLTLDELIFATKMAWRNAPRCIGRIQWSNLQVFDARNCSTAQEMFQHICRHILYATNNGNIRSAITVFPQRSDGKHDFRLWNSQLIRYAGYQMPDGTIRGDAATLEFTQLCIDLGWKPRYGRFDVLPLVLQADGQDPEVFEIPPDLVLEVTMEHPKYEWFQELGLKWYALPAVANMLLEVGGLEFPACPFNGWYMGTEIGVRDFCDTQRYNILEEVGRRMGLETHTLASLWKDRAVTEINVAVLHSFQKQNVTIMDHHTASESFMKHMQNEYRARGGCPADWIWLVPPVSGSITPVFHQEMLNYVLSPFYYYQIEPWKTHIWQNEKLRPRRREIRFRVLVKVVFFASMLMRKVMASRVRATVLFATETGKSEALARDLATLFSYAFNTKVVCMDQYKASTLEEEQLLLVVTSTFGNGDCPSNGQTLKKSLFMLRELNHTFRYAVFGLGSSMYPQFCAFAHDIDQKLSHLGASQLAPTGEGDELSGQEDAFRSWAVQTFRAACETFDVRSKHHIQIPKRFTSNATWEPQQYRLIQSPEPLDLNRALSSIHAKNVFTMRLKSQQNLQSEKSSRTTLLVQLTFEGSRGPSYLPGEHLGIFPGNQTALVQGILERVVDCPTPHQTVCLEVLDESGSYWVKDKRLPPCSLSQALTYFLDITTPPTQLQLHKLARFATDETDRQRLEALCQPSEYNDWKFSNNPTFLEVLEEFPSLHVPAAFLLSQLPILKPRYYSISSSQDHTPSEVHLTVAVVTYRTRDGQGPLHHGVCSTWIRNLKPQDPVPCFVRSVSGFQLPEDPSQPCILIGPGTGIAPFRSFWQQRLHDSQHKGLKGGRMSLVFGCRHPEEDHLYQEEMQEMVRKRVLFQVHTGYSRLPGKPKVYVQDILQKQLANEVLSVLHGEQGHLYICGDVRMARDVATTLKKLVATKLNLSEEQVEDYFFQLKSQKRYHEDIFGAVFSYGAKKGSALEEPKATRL
- Assay Summary: Evaluation as substrate of Inducible nitric oxide synthase by hemoglobin assay using NOHA as control
- Type: functional
Value Type: NO formation

Prompt: Using the record for `CCCC/N=C(/N)NOC` , report its NO formation.
Completion: < 0.5%

Prompt: Okay, and `N/C(=N/C1CC1)NO` ?
Completion: < 0.5%

Prompt: Another molecule: `CCCC/N=C(/N)NOCc1ccccc1`
Completion: < 0.5%

Prompt: Then `N=C(N)NCC1CC1` ?
Completion: < 0.5%

Prompt: // repeat for `C/C=C/C/N=C(/N)NO` and report
Completion: < 0.5%

Prompt: What about this molecule? `N=C(N)NCCC[C@H](N)C(=O)O`
Completion: 50%

Prompt: Also CC1CC1CN=C(N)N (centres undefined) , if possible.
Completion: < 0.5%

Prompt: Please answer likewise for `CC(C)NC(=N)NO`
Completion: 15%

Prompt: Also `C#CCC/N=C(/N)NO` , if possible.
Completion: 28%
